B1: TRIM43 (parent)
chain: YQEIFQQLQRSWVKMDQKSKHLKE

- Variants of: B1
- PROTOCOL DESCRIPTION: protein stability index of a GFP-peptide fusion (GPS, HEK-293T) (PSI 1-6); higher = more stable;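 note: lentivirally expressed fusions sorted by FACS into six bins by GFP to DsRed ratio, PSI derived from sequencing read proportions per bin multiplied by bin number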
- TEST CONDITIONS: c terminus: a fixed tail appended
Decide using protein stability index: a value greater than or equal to 2 is TRUE, a smaller one is FALSE.

Would you please look over these solved cases?
1) YQEIFQQLQRSWVKMDQKSAHLKE [K20A]
TRUE
2) YQEIFQQLQRSWVKADQKSKHLKE [M15A]
TRUE

Incoming: Is it the case that YQEINQQLQRSWVKMDQKSKHLKE [F5N] has protein stability index reaching or exceeding 2?
Outgoing: TRUE

Incoming: Textbook exercise: given the entry YQEIFQQLQRSWVKMDQKSKFLKE [H21F] , state whether its protein stability index is greater than or equal to 2.
Outgoing: FALSE

Incoming: # bool: protein stability index of YQEIFQQLQRSWVKMDQWSKHLKE [K18W] >= 2
Outgoing: FALSE

Incoming: Given YQEIFQQPQRSWVKMDQKSKHLKE [L8P] , state whether its protein stability index is at least 2.
Outgoing: TRUE
